conditions: PAMPA
Where a SMILES comes first, the peptide text is derived from it. [ ]: non-standard residue; d: D form. NMeL = CN[C@@H](CC(C)C)C(=O)O; dNMeL = CN[C@H](CC(C)C)C(=O)O; NMeV = CN[C@H](C(=O)O)C(C)C; NMeA = CN[C@@H](C)C(=O)O; dNMeA = CN[C@H](C)C(=O)O; Aib = CC(C)(N)C(=O)O
Here the recorded PAMPA_R1 is given for each entry.
Keep the answer to the number alone.

- COMPOUND: "CC[C@H](C)[C@@H]1NC(=O)[C@@H](CC(C)C)N(C)C(=O)[C@@H]2CCCN2C(=O)[C@H](C(C)C)NC(=O)C(C)(C)NC(=O)[C@H](CC(C)C)NC(=O)C(C)(C)NC(=O)[C@@H]2CCCN2C(=O)[C@H]2CCCN2C1=O [Design D9.1, DPRO PRO AIB LEU AIB VAL PRO *DLEU ILE] (cyclo([Aib]L[Aib]VP[dNMeL]I[dP]P))"
  PAMPA_R1: "1.43E-06"
- COMPOUND: "CC[C@@H](C)[C@H]1NC(=O)[C@H](C(C)C)NC(=O)[C@H]2CCCN2C(=O)[C@@H]2CCCN2C(=O)[C@H](CC(C)C)N(C)C(=O)[C@H](C)N(C)C(=O)[C@@H](CC(C)C)N(C)C(=O)[C@H](C)NC(=O)[C@@H](Cc2ccccc2)NC(=O)[C@@H]2CCCN2C1=O [Design D10.25] (cyclo(A[dNMeL][NMeA][NMeL]P[dP]V[dI]P[dF]))"
  PAMPA_R1: "3.97E-07"

As a next step, examine the compound that follows.
Q: Specify measured PAMPA_R1 for CC[C@H](C)[C@@H]1NC(=O)[C@@H]2CCCN2C(=O)[C@H]2CCCN2C(=O)[C@@H](Cc2ccccc2)NC(=O)[C@@H](CC(C)C)N(C)C(=O)[C@H](C(C)C)NC(=O)[C@@H](CC(C)C)NC(=O)[C@@H]2CCCN2C(=O)[C@H]2CCCN2C(=O)[C@@H](C)N(C)C(=O)[C@H](C(C)C)N(C)C1=O [Design D11.21] (cyclo(I[NMeV][dNMeA][dP]P[dL]V[dNMeL][dF][dP]P)) .
A: 2.47E-07

---

assay: Pharmacokinetics and oral bioavailability of D11.3 in male Swiss albino mice (IV, PO, SQ); format: in vivo; settings: male, Swiss albino, mouse, plasma; PO 10.00 mg/kg
Where a SMILES comes first, the peptide text is derived from it. [ ]: non-standard residue; d: D form. dNMeI = CC[C@@H](C)[C@@H](NC)C(=O)O; NMeL = CN[C@@H](CC(C)C)C(=O)O
PROPERTY_NAME: AUC(0-t) (ng·h/mL)
The reply should contain only the number, in ng·h/mL.

Q: Provide one value: measured AUC(0-t) of CC[C@@H](C)[C@H]1NC(=O)[C@H]([C@@H](C)CC)NC(=O)[C@H](CC(C)C)N(C)C(=O)[C@H]2CCCN2C(=O)[C@@H]([C@H](C)CC)NC(=O)[C@@H]([C@H](C)CC)N(C)C(=O)[C@H](CC(C)C)NC(=O)[C@H]2CCCN2C(=O)[C@@H]2CCCN2C(=O)[C@H](C(C)C)NC(=O)[C@H]2CCCN2C1=O [Design D11.3] (cyclo(I[dI][dP]VP[dP]L[dNMeI][dI][dP][NMeL]))
A: 28200

---

Entries and their measured PAMPA_R3 follow.
details: PAMPA
Where a SMILES comes first, the peptide text is derived from it. [ ]: non-standard residue; d: D form. NMeF = CN[C@@H](Cc1ccccc1)C(=O)O; dNMeF = CN[C@H](Cc1ccccc1)C(=O)O; NMeL = CN[C@@H](CC(C)C)C(=O)O; dNMeL = CN[C@H](CC(C)C)C(=O)O; NMeA = CN[C@@H](C)C(=O)O
When you answer, write just the number.

- COMPOUND: "CC[C@@H](C)[C@H]1NC(=O)[C@H](Cc2ccccc2)N(C)C(=O)[C@@H](CC(C)C)N(C)C(=O)[C@H](C(C)C)NC(=O)[C@H](C)NC(=O)[C@@H]2CCCN2C(=O)[C@H](CC(C)C)N(C)C(=O)[C@@H](Cc2ccccc2)N(C)C(=O)[C@H](C)N(C)C(=O)[C@H](C)N(C)C1=O [Design D10.56] (cyclo(AV[dNMeL][NMeF][dI][NMeA][NMeA][dNMeF][NMeL]P))"
  PROPERTY_NAME: "PAMPA_R3"
  OBSERVED_MEASUREMENT: "8.95E-06"

Q: Supply PAMPA_R3 value. Item: CC[C@@H](C)[C@H]1NC(=O)[C@H](CC(C)C)N(C)C(=O)[C@H]2CCCN2C(=O)[C@H](CC(C)C)NC(=O)[C@@H](Cc2ccccc2)N(C)C(=O)[C@H](CC(C)C)N(C)C(=O)[C@@H](C(C)C)NC(=O)[C@H](C)NC(=O)[C@H]2CCCN2C(=O)[C@@H]2CCCN2C1=O (single isomer, unassigned) [Design D10.60.p2]
A: 1.62E-06

---

test: Pharmacokinetics and oral bioavailability of D8.3.p1 and D10.1 in Balb/C female mice (PO, SQ, IV); type: in vivo; settings: female, Balb/C, mouse, plasma, po, 12.2 mg/kg, D10.1 PO 12.2 mg/kg, 360 min, individual mice M1, M2, M3; read-out: Plasma level
PROPERTY_NAME: level at time molar at 6 h (nM)
The figure you give is taken to be in nM; do not add the unit.

Q: Input "CC[C@H](C)[C@@H]1NC(=O)[C@@H](CC(C)C)NC(=O)[C@H](CC(C)C)N(C)C(=O)[C@H](Cc2ccccc2)NC(=O)CN(C)C(=O)[C@@H]2CCCN2C(=O)[C@H](C(C)C)NC(=O)[C@H](Cc2ccccc2)N(C)C(=O)[C@H]2CCCN2C(=O)[C@H](CC(C)C)NC1=O" , output reported level at time molar at 6 h.
A: 100

---

assay: Pharmacokinetics and oral bioavailability of D11.2 in male SD rats (IV, PO, SQ); format: in vivo; settings: male, Sprague Dawley, rat, plasma, iv, 1 mg/kg, IV 1 mg/kg, individual rats R1, R2, R3; read-out: Tmax
Where a SMILES comes first, the peptide text is derived from it. [ ]: non-standard residue; d: D form. NMeL = CN[C@@H](CC(C)C)C(=O)O; Sar = CNCC(=O)O
PROPERTY_NAME: Tmax (min)
Express your answer in min, writing the number without its unit.

Q: Answer with the recorded Tmax of CC[C@@H](C)[C@H]1NC(=O)[C@@H]2CCCN2C(=O)[C@@H]([C@H](C)CC)NC(=O)CN(C)C(=O)[C@H](CC(C)C)NC(=O)[C@@H](Cc2ccccc2)NC(=O)[C@H](CC(C)C)N(C)C(=O)[C@H]2CCCN2C(=O)[C@@H](CC(C)C)NC(=O)[C@H](CC(C)C)NC(=O)[C@H]2CCCN2C1=O [Design D11.2] (cyclo(L[Sar][dI]P[dI][dP]L[dL][dP][NMeL][dF])) only.
A: 5

---

assay: Pharmacokinetics and oral bioavailability of D11.2 in male SD rats (IV, PO, SQ); type: in vivo; details: rat, in vivo, 1 mg/kg, SQ 1 mg/kg, Mean
Where a SMILES comes first, the peptide text is derived from it. [ ]: non-standard residue; d: D form. NMeL = CN[C@@H](CC(C)C)C(=O)O; Sar = CNCC(=O)O
PROPERTY_NAME: MRT inf (h)
Write the answer as a number in h, unit excluded.

Q: Consider the molecule CC[C@@H](C)[C@H]1NC(=O)[C@@H]2CCCN2C(=O)[C@@H]([C@H](C)CC)NC(=O)CN(C)C(=O)[C@H](CC(C)C)NC(=O)[C@@H](Cc2ccccc2)NC(=O)[C@H](CC(C)C)N(C)C(=O)[C@H]2CCCN2C(=O)[C@@H](CC(C)C)NC(=O)[C@H](CC(C)C)NC(=O)[C@H]2CCCN2C1=O [Design D11.2] (cyclo(L[Sar][dI]P[dI][dP]L[dL][dP][NMeL][dF])) . State its measured MRT inf.
A: 6.86

---

Entries annotated with measured PAMPA_R3
conditions: PAMPA
Where a SMILES comes first, the peptide text is derived from it. [ ]: non-standard residue; d: D form. dNMeF = CN[C@H](Cc1ccccc1)C(=O)O; NMeL = CN[C@@H](CC(C)C)C(=O)O; dNMeL = CN[C@H](CC(C)C)C(=O)O; NMeA = CN[C@@H](C)C(=O)O; Nle = CCCC[C@H](N)C(=O)O; dNMeA = CN[C@H](C)C(=O)O
Answer using only a numeral; do not append any unit.

Worked set:
- MOLECULE: "CC(C)C[C@@H]1C(=O)N(C)[C@@H](CC(C)C)C(=O)N2CCC[C@@H]2C(=O)N[C@H](CC(C)C)C(=O)N[C@H](C)C(=O)N2CCC[C@@H]2C(=O)N2CCC[C@H]2C(=O)N[C@@H](C)C(=O)N[C@H](Cc2ccccc2)C(=O)N[C@H](CC(C)C)C(=O)N[C@@H](C(C)C)C(=O)N1C (single isomer, unassigned) [Design D11.9.p1]"
  PAMPA_R3: "2.42E-07"
- MOLECULE: "CCCC[C@@H]1NC(=O)[C@H](C(C)C)NC(=O)[C@H]2CCCN2C(=O)[C@@H]2CCCN2C(=O)[C@H](C)NC(=O)[C@@H](C)N(C)C(=O)[C@@H](CC(C)C)N(C)C(=O)[C@@H](C(C)C)NC(=O)[C@@H]2CCCN2C1=O [Design D9.21] (cyclo(AP[dP]V[Nle]P[dV][dNMeL][dNMeA]))"
  PAMPA_R3: "3.05E-07"
- MOLECULE: "CC(C)C[C@@H]1NC(=O)[C@@H](C)NC(=O)[C@H]2CCCN2C(=O)[C@@H]2CCCN2C(=O)[C@@H](C(C)C)NC(=O)[C@@H](CC(C)C)N(C)C(=O)[C@H]2CCCN2C(=O)[C@H]2CCCN2C(=O)[C@@H](C)N(C)C(=O)[C@H](CC(C)C)N(C)C(=O)[C@@H](Cc2ccccc2)NC1=O [Design D11.16] (cyclo(L[dF][NMeL][dNMeA][dP][dP][dNMeL][dV]P[dP][dA]))"
  PAMPA_R3: "4.55E-07"

Q: Complete the entry with PAMPA_R3 for CC[C@@H](C)[C@H]1NC(=O)[C@H]2CCCN2C(=O)[C@@H]2CCCN2C(=O)[C@@H](CC(C)C)NC(=O)[C@H](C)NC(=O)[C@@H](CC(C)C)N(C)C(=O)[C@@H](C)N(C)C(=O)[C@@H]2CCCN2C(=O)[C@@H]([C@H](C)CC)NC(=O)[C@@H](CC(C)C)N(C)C1=O [Design D10.39] (cyclo(A[dL]P[dP][dI][dNMeL][dI]P[dNMeA][dNMeL]))
A: 1.47E-06

Q: Give a short answer stating reported PAMPA_R3 for CC[C@H](C)[C@@H]1NC(=O)[C@@H](C)N(C)C(=O)[C@@H](C)N(C)C(=O)[C@@H]2CCCN2C(=O)[C@H](CC(C)C)NC(=O)[C@H](CC(C)C)NC(=O)[C@@H](CC(C)C)NC(=O)[C@@H]2CCCN2C(=O)[C@H]2CCCN2C1=O [Design D9.11] (cyclo([dL]LLP[dNMeA][dNMeA]I[dP]P)) .
A: 2.10E-07

Q: For the molecule CC[C@@H](C)[C@H]1NC(=O)[C@H](CC(C)C)NC(=O)[C@@H](CC(C)C)NC(=O)[C@H](C(C)C)NC(=O)[C@@H](Cc2ccccc2)N(C)C(=O)[C@@H]2CCCN2C(=O)[C@@H](CC(C)C)NC(=O)[C@H](CC(C)C)N(C)C(=O)[C@H]2CCCN2C1=O [Design D9.3] (cyclo(L[dI][dP][NMeL][dL]P[dNMeF]V[dL])) , give its measured PAMPA_R3 value.
A: 2.01E-06

Q: Entry CC(C)C[C@@H]1NC(=O)[C@H](C(C)C)NC(=O)[C@@H](CC(C)C)N(C)C(=O)[C@H](C)NC(=O)[C@@H](CC(C)C)N(C)C(=O)[C@@H]2CCCN2C(=O)[C@H]2CCCN2C(=O)[C@H](C)N(C)C(=O)[C@H]2CCCN2C(=O)[C@@H](CC(C)C)NC1=O [Design D10.35] (cyclo([dNMeL]A[dNMeL]VL[dL][dP][NMeA][dP]P)) needs its PAMPA_R3 filled in; supply it.
A: 2.07E-07
